# TARGET_UNDER_TEST: T1, Human TfR-AVI-His (control) (human, UniProt P02786 89-760)
# T1 construct: control protein; also called Avi-His-tagged human TfR; human transferrin receptor
# TEST_DESCRIPTION: ELISA, hybridoma supernatant
PROPERTY_NAME: OD450

BINDER	PROPERTY_NAME	NUMERIC_RESULT
CD98HC.04.006 (antibody, V domains shown, hybridoma IgG) VH: EVNLVESGGDLVQPGGSLRLSCATSGFTFTDYFMSWVRQPPGKALEWLGFIRNKAYGYTTEYSASVKGRFTISRDNSQSIFYLQMNTLRLEDSATYYCARGPFISTAPFAYWGQGTLVTVSA VL: DIVMSQSPSSLAVSVGETVTMSCKSSQSLLYSSNQKNYLAWYQQKPGQSPKLLIYWGSTRESGVPDRFTGSGSGTDFTLTISSVKAEDLAVYYCQHYYGYPWTFGGGTKLEIK	OD450	0.129
CD98HC.04.011 (antibody, V domains shown, hybridoma IgG) VH: DVQLQESGPDLVKPSQSLSLTCSVTVYSFTSVYSWHWIRQFPGNKLEWMGYIHDSGTTNYNPSLKSRISVTRDTSKNQFFLQLNSVTTEDTATYYCARGRPYGYDGFAYWGQGTLVTVSA VL: DIQMTQSSSYLSVSLGDRVTITCKASDHINNWLAWYQQKPGNAPRLLITGAVNLETGVPSRFSGSGSGKDYTLSITSLQTEDVATYYCQQYWSIPRTFGGGTNLEIK	OD450	0.0705
CD98HC.04.018 (antibody, V domains shown, hybridoma IgG) VH: QIQLVQSGPELKKPGETVKISCKASGYTFRNYGMNWVKQAPGKGLKWMGWINTYTGEPTYAEDFKGRFAFSLETSASTAYLQINKLKNEDEATYFCARGEAHWYFDVWGAGTTVTVSS VL: QIVLTQSPAIMSASLGERVTMTCTASSSVSSSYLYWYQQKPGSSPKLWIYSIFNLASGVPARFSGSGSGTSYSLTISSMEAEDAATYYCHQYHRSPPTFGGGTKLEIK	OD450	0.0717
